# System: T47D cells
# MEASUREMENT NOTES: T47D proliferation
# Format: cell-based
# CONDITIONS: Homo sapiens
pIC50: −log10 of the molar value.
QUANTITY NAME: pIC50

Q: Sample `Nc1nc2cc(-c3ccc4ncc(C(=O)NC5CC5)n4c3)ccc2o1` — what was its pIC50?
A: > 5.00

====

pIC50: −log10 of the molar value.
Measured pIC50 (PI3K β (Homo sapiens (Human)))

Q: Sample `CN1CCN(c2cnc3ccc(-c4ccc5oc(N)nc5c4)cc3n2)CC1=O` — what was its pIC50?
A: > 6.00

Q: Sample `Nc1noc2cc(-c3ccc4ncc(C(=O)N5CCOCC5)n4c3)ccc12` — what was its pIC50?
A: < 5.00

Q: Sample `CS(=O)(=O)N1CCN(C2CN(c3cnc4ccc(-c5ccc6oc(N)nc6c5)nc4n3)C2)CC1` — what was its pIC50?
A: < 5.00

Q: Sample `CC(C)N1CCC(n2cnc3ccc(-c4cncc(NS(C)(=O)=O)c4)cc3c2=O)CC1` — what was its pIC50?
A: < 5.00

Q: Sample `Nc1nc2cc(-c3ccc4ncc(N5CC(N6CCOCC6)C5)nc4c3)ccc2o1` — what was its pIC50?
A: < 5.00

Q: Sample `Nc1nc2nc(-c3ccc4ncc(C(=O)N5CCOCC5)n4c3)ccc2o1` — what was its pIC50?
A: < 5.00

Q: Sample `Nc1nc2cc(-c3ccc4ncc(N5CC(N6C7CCC6COC7)C5)cc4n3)ccc2o1` — what was its pIC50?
A: < 5.00

Q: Sample `CNc1noc2cc(-c3ccc4ncc(C(=O)N5CCOCC5)n4c3)ccc12` — what was its pIC50?
A: < 5.00

Q: Sample `Nc1nc2cc(-c3ccc4ncc(N5CCNC(=O)C5)nc4c3)ccc2o1` — what was its pIC50?
A: > 6.00

Q: Sample `CC(=O)Nc1nc2cc(-c3cc(F)c4oc(N)nc4c3)ccc2s1` — what was its pIC50?
A: > 5.00

====

# ASSAYED SYSTEM: UniProt:P42338
Please go through the items and note down their IC50.

Q: Form entry - test system: UniProt:P42338; read-out: IC50; molecule: `Nc1nc2cc(-c3ccc4nnc(-c5cccnc5)n4c3)ccc2o1`
A: < 10 µM

Q: Form entry - test system: UniProt:P42338; read-out: IC50; molecule: CC(=O)Nc1cn2cc(-c3ccc4nccc(-c5ccncc5)c4c3)ccc2n1 [Compound 19]
A: > 10 µM

Q: Form entry - test system: UniProt:P42338; read-out: IC50; molecule: `C[C@@H]1CN(C2CN(C(=O)c3cnc4ccc(-c5ccc6oc(N)nc6c5)cn34)C2)CCN1C`
A: < 10 µM

Q: Form entry - test system: UniProt:P42338; read-out: IC50; molecule: `Nc1nc2cc(-c3ccc4ncc(C(=O)N5CCC5)n4c3)ccc2o1`
A: < 10 µM

Q: Form entry - test system: UniProt:P42338; read-out: IC50; molecule: `Nc1nc2ccc(-c3ccc4nc(N)oc4c3)cc2o1`
A: > 10 µM

Q: Form entry - test system: UniProt:P42338; read-out: IC50; molecule: `CN1CCCN(C(=O)c2cnc3ccc(-c4ccc5oc(N)nc5c4)cn23)CC1`
A: < 10 µM

Q: Form entry - test system: UniProt:P42338; read-out: IC50; molecule: `CCN(CC)C1CN(c2cnc3ccc(-c4ccc5oc(N)nc5c4)cc3n2)C1`
A: < 10 µM

Q: Form entry - test system: UniProt:P42338; read-out: IC50; molecule: `Nc1nc2cc(-c3ccc4ncc(N5CCN(C(=O)[C@H]6CCCN6)CC5)nc4c3)ccc2o1`
A: < 0.1 µM

Q: Form entry - test system: UniProt:P42338; read-out: IC50; molecule: `CC(C)Oc1nc(-c2ccc3oc(N)nc3c2)cnc1N`
A: < 10 µM

Q: Form entry - test system: UniProt:P42338; read-out: IC50; molecule: `CCN1CCN(C2CN(c3cnc4ccc(-c5ccc6oc(N)nc6c5)cc4n3)C2)CC1`
A: < 1 µM

====

# ASSAYED SYSTEM: PI3K δ (Homo sapiens (Human))
# Sequence (O00329 whole entry): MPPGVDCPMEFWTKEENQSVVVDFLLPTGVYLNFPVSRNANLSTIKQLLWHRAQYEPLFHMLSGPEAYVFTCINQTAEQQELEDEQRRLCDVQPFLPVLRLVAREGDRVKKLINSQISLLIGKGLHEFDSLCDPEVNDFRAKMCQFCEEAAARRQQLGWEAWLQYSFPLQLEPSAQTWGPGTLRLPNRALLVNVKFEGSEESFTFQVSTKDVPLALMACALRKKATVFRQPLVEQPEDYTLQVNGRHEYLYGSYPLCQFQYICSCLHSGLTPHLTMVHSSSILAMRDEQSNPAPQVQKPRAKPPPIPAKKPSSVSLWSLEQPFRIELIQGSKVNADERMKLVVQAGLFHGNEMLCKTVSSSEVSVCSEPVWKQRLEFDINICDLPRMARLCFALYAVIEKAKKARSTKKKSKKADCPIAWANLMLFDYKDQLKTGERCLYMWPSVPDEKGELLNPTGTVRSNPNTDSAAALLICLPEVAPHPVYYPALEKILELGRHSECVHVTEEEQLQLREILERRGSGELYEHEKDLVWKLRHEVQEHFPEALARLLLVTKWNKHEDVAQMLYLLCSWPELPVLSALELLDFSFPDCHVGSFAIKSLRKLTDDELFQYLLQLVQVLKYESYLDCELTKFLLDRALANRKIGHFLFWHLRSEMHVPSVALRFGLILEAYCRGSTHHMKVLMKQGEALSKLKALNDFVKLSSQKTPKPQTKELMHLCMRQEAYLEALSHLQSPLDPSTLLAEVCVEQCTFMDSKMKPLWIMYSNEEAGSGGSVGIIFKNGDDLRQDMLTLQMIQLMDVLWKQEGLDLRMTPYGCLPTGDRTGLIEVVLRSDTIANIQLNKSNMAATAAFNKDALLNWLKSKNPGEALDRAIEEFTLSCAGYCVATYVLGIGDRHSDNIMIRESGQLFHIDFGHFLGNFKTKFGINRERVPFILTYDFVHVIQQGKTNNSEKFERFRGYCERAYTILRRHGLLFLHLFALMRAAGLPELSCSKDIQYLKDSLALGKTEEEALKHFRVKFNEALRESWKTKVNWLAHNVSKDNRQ
# Sequence (P27986 whole entry partner): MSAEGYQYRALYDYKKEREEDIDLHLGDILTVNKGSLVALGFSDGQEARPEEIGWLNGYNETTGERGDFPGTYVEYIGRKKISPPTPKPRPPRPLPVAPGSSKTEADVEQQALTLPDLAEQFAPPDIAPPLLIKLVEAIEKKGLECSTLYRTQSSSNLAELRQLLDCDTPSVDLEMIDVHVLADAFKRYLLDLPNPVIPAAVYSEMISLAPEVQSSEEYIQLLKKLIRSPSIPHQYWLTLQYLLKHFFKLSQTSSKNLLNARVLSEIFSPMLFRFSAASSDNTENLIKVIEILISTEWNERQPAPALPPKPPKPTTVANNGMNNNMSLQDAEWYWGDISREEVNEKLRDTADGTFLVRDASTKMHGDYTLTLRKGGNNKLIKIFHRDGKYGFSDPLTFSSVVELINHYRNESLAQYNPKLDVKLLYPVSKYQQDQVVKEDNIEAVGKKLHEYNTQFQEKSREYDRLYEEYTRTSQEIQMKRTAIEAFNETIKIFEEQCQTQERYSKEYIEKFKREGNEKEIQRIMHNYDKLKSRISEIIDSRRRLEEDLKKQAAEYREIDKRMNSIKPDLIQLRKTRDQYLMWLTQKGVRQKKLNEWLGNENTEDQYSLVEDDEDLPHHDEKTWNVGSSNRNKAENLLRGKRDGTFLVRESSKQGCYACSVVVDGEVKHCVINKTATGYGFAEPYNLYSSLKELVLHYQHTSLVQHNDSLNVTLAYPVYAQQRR
pIC50: −log10 of the molar value.
QUANTITY NAME: pIC50

Q: Form entry - test system: PI3K δ (Homo sapiens (Human)); read-out: pIC50; molecule: `Nc1nc2cc(-c3ccc4ncc(N5CC(N6C7CCC6COC7)C5)nc4n3)ccc2o1`
A: < 5.00

Q: Form entry - test system: PI3K δ (Homo sapiens (Human)); read-out: pIC50; molecule: `CNC(=O)N1CCN(c2cnc3ccc(-c4ccc5oc(N)nc5c4)cc3n2)CC1`
A: > 5.00

Q: Form entry - test system: PI3K δ (Homo sapiens (Human)); read-out: pIC50; molecule: `CC(C)(N)C(=O)N1CCN(c2cnc3ccc(-c4ccc5oc(N)nc5c4)nc3n2)CC1`
A: > 5.00

Q: Form entry - test system: PI3K δ (Homo sapiens (Human)); read-out: pIC50; molecule: `Cc1nc2ccc(-c3ccc4oc(N)nc4c3)cn2c1C(=O)N1CCN(C)CC1`
A: < 5.00

Q: Form entry - test system: PI3K δ (Homo sapiens (Human)); read-out: pIC50; molecule: `Cc1nccn1C1CN(c2cnc3ccc(-c4ccc5oc(N)nc5c4)nc3n2)C1`
A: > 5.00

====

# MEASUREMENT NOTES: PI 3-Kinase (human) HTRF assay, p110δ/p85α
# Type: biochemical
# CONDITIONS: read-out: PI3K γ IC50
Please go through the items and note down their IC50.

Q: Sample `Nc1nc2cc(-c3ccc4ncc(N5CC(N)C5)nc4c3)ccc2o1` — what was its IC50?
A: < 10 µM

Q: Sample `CS(=O)(=O)Nc1cccc(-c2ccc3ncc(C(=O)N4CCOCC4)n3c2)c1` — what was its IC50?
A: > 10 µM

Q: Sample CN(C)CC(=O)N1CCN(c2cnc3ccc(-c4ccc5oc(N)nc5c4)cc3n2)CC1 [drawing 407] — what was its IC50?
A: < 1 µM

Q: Sample `Nc1nc2cc(-c3cc(F)c4ncc(C(=O)N5CCOCC5)n4c3)ccc2o1` — what was its IC50?
A: > 10 µM

Q: Sample `Nc1nc2cc(-c3ccc4ncc(N5CCN(C(=O)C6(N)CCC6)CC5)nc4c3)ccc2o1` — what was its IC50?
A: < 1 µM

Q: Sample `C[C@@H]1CN(C(=O)C2CN(c3cnc4ccc(-c5ccc6oc(N)nc6c5)cc4n3)C2)CCN1` — what was its IC50?
A: < 1 µM

Q: Sample Nc1nc2cc(-c3ccc4ncc(N5CCNC(C(F)F)C5)nc4c3)ccc2o1 (stereo not shown) — what was its IC50?
A: < 10 µM

Q: Sample `Nc1cn2cc(-c3ccc4nc(N)oc4c3)ccc2n1` — what was its IC50?
A: > 10 µM

Q: Sample `Nc1n[nH]c2c(-c3ccc4ncc(C(=O)N5CCOCC5)n4c3)cccc12` — what was its IC50?
A: > 10 µM

Q: Sample `Nc1n[nH]c2cc(-c3ccc4ncc(C(=O)N5CCOCC5)n4c3)ccc12` — what was its IC50?
A: > 10 µM

====

Please go through the items and note down their pIC50.
# ASSAYED SYSTEM: PI3K α (Homo sapiens (Human))
# Sequence (P42336 whole entry): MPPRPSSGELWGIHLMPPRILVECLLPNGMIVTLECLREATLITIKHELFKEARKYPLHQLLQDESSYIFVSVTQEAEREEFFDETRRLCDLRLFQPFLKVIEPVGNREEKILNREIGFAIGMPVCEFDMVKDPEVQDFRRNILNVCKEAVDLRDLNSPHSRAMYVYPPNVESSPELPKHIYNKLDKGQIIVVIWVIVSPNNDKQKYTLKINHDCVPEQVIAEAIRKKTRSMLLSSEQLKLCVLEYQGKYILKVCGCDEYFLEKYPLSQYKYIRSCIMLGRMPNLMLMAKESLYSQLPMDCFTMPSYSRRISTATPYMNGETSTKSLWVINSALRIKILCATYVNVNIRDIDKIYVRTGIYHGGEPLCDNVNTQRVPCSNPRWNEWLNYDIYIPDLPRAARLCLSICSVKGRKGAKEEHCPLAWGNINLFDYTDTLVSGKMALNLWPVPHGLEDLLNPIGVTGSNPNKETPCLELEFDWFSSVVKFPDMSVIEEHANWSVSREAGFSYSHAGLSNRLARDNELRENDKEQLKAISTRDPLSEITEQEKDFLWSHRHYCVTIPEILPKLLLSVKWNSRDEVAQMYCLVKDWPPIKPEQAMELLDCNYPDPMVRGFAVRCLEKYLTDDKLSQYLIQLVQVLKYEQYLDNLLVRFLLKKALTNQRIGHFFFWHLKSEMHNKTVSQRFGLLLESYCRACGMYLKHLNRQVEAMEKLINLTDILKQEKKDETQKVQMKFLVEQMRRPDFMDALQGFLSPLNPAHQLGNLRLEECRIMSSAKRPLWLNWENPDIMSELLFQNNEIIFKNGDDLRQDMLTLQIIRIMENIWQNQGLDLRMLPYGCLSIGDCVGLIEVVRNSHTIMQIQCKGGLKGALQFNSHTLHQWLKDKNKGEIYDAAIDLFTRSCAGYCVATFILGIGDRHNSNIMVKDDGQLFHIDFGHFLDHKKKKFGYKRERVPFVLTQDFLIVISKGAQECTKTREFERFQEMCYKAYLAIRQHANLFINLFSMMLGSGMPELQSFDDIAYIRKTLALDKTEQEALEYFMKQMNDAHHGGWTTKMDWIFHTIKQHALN
# Sequence (P27986 whole entry partner): as the sequence (P27986 whole entry partner) above
pIC50: −log10 of the molar value.

Q: Sample `Nc1nc2cc(-c3ccc4nccn4c3)ccc2o1` — what was its pIC50?
A: > 5.00

Q: Sample `Nc1nc2cc(-c3ccc4ncc(N5CC(N6CCOCC6)C5)nc4c3)ccc2o1` — what was its pIC50?
A: > 7.00

Q: Sample `O=C(c1cnc2ccc(-c3cccc(S(=O)(=O)Nc4cc(F)ccc4F)c3)cn12)N1CCOCC1` — what was its pIC50?
A: < 5.00

Q: Sample `Cc1nc2ccc(-c3ccc4oc(N)nc4c3)cn2c1C(=O)N1CCOCC1` — what was its pIC50?
A: < 5.00

Q: Sample `Cc1ccn(C2CCN(c3cnc4ccc(-c5ccc6oc(N)nc6c5)cc4n3)CC2)n1` — what was its pIC50?
A: > 7.00

Q: Sample `C[C@H]1CN(C2CN(C(=O)c3cnc4ccc(-c5ccc6oc(N)nc6c5)cn34)C2)CCN1C` — what was its pIC50?
A: > 7.00

Q: Sample `Nc1ncc(-c2ccc3oc(N)nc3c2)cn1` — what was its pIC50?
A: < 5.00

Q: Sample `Nc1nc2cc(-c3ccc4ncc(N5CC(N6CCOCC6)C5)cc4n3)ccc2o1` — what was its pIC50?
A: > 7.00

Q: Sample `CNC(=O)CN1CCN(c2cnc3ccc(-c4ccc5oc(N)nc5c4)cc3n2)CC1` — what was its pIC50?
A: > 7.00

Q: Sample `Nc1nc2cc(-c3ccc4nc(N)oc4c3)ccc2o1` — what was its pIC50?
A: > 6.00

Q: Sample `Nc1nc2cc(-c3ccc4ncc(C(=O)N5CC(N6CCC(F)(F)C6)C5)n4c3)ccc2o1` — what was its pIC50?
A: > 7.00

Q: Sample `CC(C)[C@@H](N)C(=O)N1CCN(c2cnc3ccc(-c4ccc5oc(N)nc5c4)cc3n2)CC1` — what was its pIC50?
A: > 7.00

Q: Sample `Cc1nccn1C1CN(c2cnc3ccc(-c4ccc5oc(N)nc5c4)cc3n2)C1` — what was its pIC50?
A: > 7.00

Q: Sample `CN1CCN(c2cnc3ccc(-c4ccc5sc(N)nc5c4)cc3n2)CC1` — what was its pIC50?
A: > 6.00

Q: Sample `Nc1nc2cc(-c3ccc4ncc(C(=O)N5CC(n6cccn6)C5)n4c3)ccc2o1` — what was its pIC50?
A: > 7.00

Q: Sample `CC(=O)N1CCC(Nc2ncnc3ccc(-c4ccc5oc(N)nc5c4)nc23)CC1` — what was its pIC50?
A: > 7.00

Q: Sample `C[C@@H]1CN(C2CN(c3cnc4ccc(-c5ccc6oc(N)nc6c5)nc4c3)C2)CCN1C` — what was its pIC50?
A: > 7.00

Q: Sample `Nc1nsc2cc(-c3ccc4nccc(-c5ccncc5)c4c3)ccc12` — what was its pIC50?
A: > 7.00

Q: Sample `Nc1nc2cc(-c3ccc4ncn(C(=O)N5CCOCC5)c4c3)ccc2o1` — what was its pIC50?
A: < 5.00

Q: Sample `CS(=O)(=O)N1CCC(Nc2ncnc3ccc(-c4ccc5oc(N)nc5c4)cc23)CC1` — what was its pIC50?
A: > 7.00

Q: Sample `Nc1nc2cc(-c3ccc4ncc(N5C6CCC5COC6)nc4n3)ccc2o1` — what was its pIC50?
A: > 7.00
